For each of the compounds below, state its pEC50.
ASSAYED SYSTEM: human CB1 receptors (Homo sapiens (Human), UniProt P21554)
Sequence (P21554 whole entry): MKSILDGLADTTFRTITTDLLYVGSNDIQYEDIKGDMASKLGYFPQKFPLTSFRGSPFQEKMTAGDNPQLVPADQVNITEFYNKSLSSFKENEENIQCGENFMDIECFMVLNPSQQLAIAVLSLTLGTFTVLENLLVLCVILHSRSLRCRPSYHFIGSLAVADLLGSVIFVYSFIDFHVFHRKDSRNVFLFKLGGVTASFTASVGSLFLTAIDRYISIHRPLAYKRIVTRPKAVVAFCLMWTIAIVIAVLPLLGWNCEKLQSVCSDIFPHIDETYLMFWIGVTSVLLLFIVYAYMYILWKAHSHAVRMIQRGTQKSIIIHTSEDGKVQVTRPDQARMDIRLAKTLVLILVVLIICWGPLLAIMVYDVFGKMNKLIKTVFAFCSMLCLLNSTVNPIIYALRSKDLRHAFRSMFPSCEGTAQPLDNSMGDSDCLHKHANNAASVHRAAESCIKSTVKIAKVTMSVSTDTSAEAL
TEST DETAILS: cAMP assay, CHO cells expressing human CB1 receptors
Assay type: cell-based
MEASUREMENT SETUP: CHO cells expressing human CB1, cAMP; read-out: human CB1 EC50
Give bare numbers, as −log10 of the molar value.

Some compounds with recorded pEC50:
Cc1nc([C@H](NC(=O)c2cccc(-c3ccc(F)c(Cl)c3)n2)C2CC2)no1    6.59
CNC(=O)[C@@H](NC(=O)c1ccc(C2CC2)c(OCC2CC2)n1)C(C)(C)C    6.51
CC(C)(NC(=O)c1ccc(N2CC(F)(F)C2)c(OCC2CC2)n1)c1nccs1    6.42

Suppose we examine the compound COc1ccc(C(=O)NC(C)(C)c2nccs2)nc1-c1cccc(Cl)c1 ; what pEC50 value has been reported?
5.64

* * *

Please respond with reported EC50 for every item in the list.
ASSAYED SYSTEM: UniProt P21554
TEST DETAILS: cAMP assay, CHO cells expressing human CB1 receptors
Format: cell-based
MEASUREMENT SETUP: CHO cells expressing human CB1, cAMP; read-out: human CB1 EC50

Before answering, review these 7 worked examples.
O=C(N[C@@H](CC1CC1)c1nccs1)c1cccc(-c2cccc(Cl)c2)n1    > 10 µM
Cc1nc([C@@H](NC(=O)c2ccc(C3CC3)c(OCC3CC3)n2)C2CC2)no1    > 10 µM
CC(C)CC(NC(=O)c1ccc(N2CC(F)(F)C2)c(OCC2CC2)n1)c1cccnc1 (centres unmarked)    > 10 µM
CCC(CC)(NC(=O)c1ccc(C)c(-c2cccc(Cl)c2)n1)C(=O)NC    > 10 µM
CCC(CC)(NC(=O)c1ccc(C2CC2)c(OCC2CCOCC2)n1)C(=O)O    0.475 µM
CC(C)(O)[C@H](CC1CC1)NC(=O)c1ccc(N2CC(F)(F)C2)c(OCC2CC2)n1    > 10 µM
CNC(=O)[C@@H](NC(=O)c1ccc(C2CC2)c(OCC2CCCO2)n1)C(C)(C)C (some centres unmarked)    0.102 µM

Field: next compound
I'd like to know its EC50. The compound in question is Cc1nc(C(C)(C)NC(=O)c2ccc(C3CCCO3)c(-c3cccc(Cl)c3)n2)no1 (centres unmarked)
> 10 µM

* * *

ASSAYED SYSTEM: human CB2 receptors (Homo sapiens (Human), UniProt P34972)
Sequence (P34972 whole entry): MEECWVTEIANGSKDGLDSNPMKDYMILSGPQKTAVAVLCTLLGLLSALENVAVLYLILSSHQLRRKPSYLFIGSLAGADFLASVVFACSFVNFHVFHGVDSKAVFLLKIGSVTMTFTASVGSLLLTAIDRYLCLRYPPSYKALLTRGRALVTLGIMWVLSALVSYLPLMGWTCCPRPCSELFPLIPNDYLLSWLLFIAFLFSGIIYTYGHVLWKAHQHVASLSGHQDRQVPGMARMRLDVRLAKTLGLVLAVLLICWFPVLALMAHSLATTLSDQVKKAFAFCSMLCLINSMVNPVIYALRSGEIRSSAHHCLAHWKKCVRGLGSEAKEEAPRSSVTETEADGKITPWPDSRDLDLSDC
TEST DETAILS: cAMP assay, CHO cells expressing human CB2 receptors
Type: cell-based
MEASUREMENT SETUP: CHO cells expressing human CB2, cAMP; read-out: human CB2 EC50
RESULT TYPE: pEC50
One number for each entry, as −log10 of the molar value.

Example compounds with recorded pEC50:
Cc1nc(C(C)(C)NC(=O)c2cccc(-c3ccc(Cl)cc3)n2)no1    6.47
CNC(=O)[C@@H](NC(=O)c1ccc(C2CC2)c(OCc2ccccn2)n1)C(C)(C)C    7.57
Cc1nc([C@](C)(NC(=O)c2ccc(C3CC3)c(OCC3CC3)n2)C2CC2)no1    8.39
CC(C)(CO)NC(=O)c1ccc(C2CCOC2)c(OCC2CC2)n1 (centres unmarked)    6.34

Each compound below has a reported value. Please supply its pEC50.
1. COCCOc1nc(C(=O)NC(C)(C)c2noc(C)n2)ccc1C1CC1
2. CC1(COc2nc(C(=O)NC(C)(C)c3nccs3)ccc2N2CC(F)(F)C2)COC1
3. CNC(=O)[C@@H](NC(=O)c1ccc(Br)c(OCC2CCCO2)n1)C(C)(C)C (some centres unmarked)
4. NC(=O)[C@H](NC(=O)c1ccc(C2CC2)c(OCC2CC2)n1)C1CC1

6.53
6.59
8.30
6.45
